Target: T1, canine NGF tagged at the C-terminus with the Flag tag (canine, UniProt A0A8I3PYI3 122-241)
T1 construct: mature; Expressed with baculovirus technology; also called feline NGF (processed form identical)
T1 sequence (A0A8I3PYI3 entry or part of it): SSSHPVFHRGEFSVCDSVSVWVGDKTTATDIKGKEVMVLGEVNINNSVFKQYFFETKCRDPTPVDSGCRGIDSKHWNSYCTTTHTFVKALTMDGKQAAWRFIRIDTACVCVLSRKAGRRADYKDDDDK
Assay: SPR off-rate assay, Fab-SASA on BSA chip
Exercise: state measured koff for each of the binders provided.
One number for each entry, in s⁻¹.

QUERY: State the recorded koff for this entry: AHF17597 (Fab, V domains shown, not shown: small tags and cut ends) VH: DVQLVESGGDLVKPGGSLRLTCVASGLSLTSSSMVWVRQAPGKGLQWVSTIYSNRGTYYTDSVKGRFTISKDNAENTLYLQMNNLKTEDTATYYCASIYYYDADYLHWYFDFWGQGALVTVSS VL: EIQMTQSPTSLSASVGDRVTITCRASEGIQNNLSWYQQTPGKAPKLLIYATSILHSGVPSRFSGSGSGTDFTLTISSLQPEDFATYYCQQGYKWPLTFGGGTKLEITR
RESULT: 1.08e-05

Now look at this one.
QUERY: Return reported koff; argument: AHF17606 (Fab, V domains shown, not shown: small tags and cut ends) VH: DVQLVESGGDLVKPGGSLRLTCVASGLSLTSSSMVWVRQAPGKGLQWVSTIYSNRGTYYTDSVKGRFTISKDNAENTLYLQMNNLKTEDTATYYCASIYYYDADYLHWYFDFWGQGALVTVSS VL: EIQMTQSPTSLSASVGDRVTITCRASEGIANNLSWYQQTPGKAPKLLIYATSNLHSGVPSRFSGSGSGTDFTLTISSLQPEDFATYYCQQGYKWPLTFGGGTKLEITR
RESULT: 2.01e-05
